Assign protein stability index to each entry below.
B1: TRIM35 (parent)
chain: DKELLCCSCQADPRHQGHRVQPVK

- Variants of: B1
- procedure_details: protein stability index of a GFP-peptide fusion (GPS, HEK-293T) (PSI 1-6); higher = more stable;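 also: lentivirally expressed fusions sorted by FACS into six bins by GFP to DsRed ratio, PSI derived from sequencing read proportions per bin multiplied by bin number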
- test_conditions: c terminus: a fixed tail appended
Output spec: single numeric token, no unit.

Problem: Looking for the measured protein stability index of `DKELLCCSCQAIPRHQGHRVQPVK` , can you help?
Result: 2.45

Problem: Looking for the measured protein stability index of `DKELLCCSCQADPRHQLHRVQPVK` , can you help?
Result: 3.35

Problem: Looking for the measured protein stability index of `DKELLCCSCQADPRHQGHRVQPVP` , can you help?
Result: 3.46

Problem: Looking for the measured protein stability index of `DKELLCCSCQADPRHQTHRVQPVK` , can you help?
Result: 3.78

Problem: Looking for the measured protein stability index of `DKELLCGSCQADPRHQGHRVQPVK` , can you help?
Result: 4.23

Problem: Looking for the measured protein stability index of `DKELLCCSCQADPRHQGHMVQPVK` , can you help?
Result: 3.71

Problem: Looking for the measured protein stability index of `DKELLCCSCQADPRHQGHRVKPVK` , can you help?
Result: 3.74

Problem: Looking for the measured protein stability index of `DKELLCCSCQADPRHQGHVVQPVK` , can you help?
Result: 3.84

Problem: Looking for the measured protein stability index of `DKELLCCSCQADLRHQGHRVQPVK` , can you help?
Result: 3.76

Problem: Looking for the measured protein stability index of `DKELLCCSCQADPRHQGHRVQLVK` , can you help?
Result: 2.84

Problem: Looking for the measured protein stability index of `DKELLCLSCQADPRHQGHRVQPVK` , can you help?
Result: 3.66

Problem: Looking for the measured protein stability index of `DKELLCWSCQADPRHQGHRVQPVK` , can you help?
Result: 3.9

Problem: Looking for the measured protein stability index of `DKELLCCSCQADPRHQGHRVQPMK` , can you help?
Result: 3.05

Problem: Looking for the measured protein stability index of `DKELLCCSQQADPRHQGHRVQPVK` , can you help?
Result: 4.65

Problem: Looking for the measured protein stability index of `DKELLCCSCQADPRHNGHRVQPVK` , can you help?
Result: 3.33

Problem: Looking for the measured protein stability index of `DKELNCCSCQADPRHQGHRVQPVK` , can you help?
Result: 2.66

Problem: Looking for the measured protein stability index of `DKELLFCSCQADPRHQGHRVQPVK` , can you help?
Result: 2.99

Problem: Looking for the measured protein stability index of `RKELLCCSCQADPRHQGHRVQPVK` , can you help?
Result: 2.71

Problem: Looking for the measured protein stability index of `DKELLCCQCQADPRHQGHRVQPVK` , can you help?
Result: 3.05

Problem: Looking for the measured protein stability index of `DKELLCCSCQADPRHQGQRVQPVK` , can you help?
Result: 3.29

Problem: Looking for the measured protein stability index of `DKEALCCSCQADPRHQGHRVQPVK` , can you help?
Result: 3.86

Problem: Looking for the measured protein stability index of `DKELLCCSCQADPRHQGHCVQPVK` , can you help?
Result: 3.63

Origin of values: the supplement of paper PMC10567573
